biological target: Nucleoprotein (Lymphocytic choriomeningitis virus (strain Armstrong)) (UniProt P09992); experiment: qHTS for Inhibitors of the Functional Ribonucleoprotein Complex (vRNP) of Lymphocytic Choriomeningitis Arenaviruses (LCMV): LCMV Primary Screen - GLuc reporter signal (AID 1347086); settings: LCMV minigenome vRNP cell assay, Gaussia luciferase reporter; series mostly up to 57.5 µM; also: nearly all actives have a fitted effect of over 70% in size
Sequence (P09992 whole entry, looked up): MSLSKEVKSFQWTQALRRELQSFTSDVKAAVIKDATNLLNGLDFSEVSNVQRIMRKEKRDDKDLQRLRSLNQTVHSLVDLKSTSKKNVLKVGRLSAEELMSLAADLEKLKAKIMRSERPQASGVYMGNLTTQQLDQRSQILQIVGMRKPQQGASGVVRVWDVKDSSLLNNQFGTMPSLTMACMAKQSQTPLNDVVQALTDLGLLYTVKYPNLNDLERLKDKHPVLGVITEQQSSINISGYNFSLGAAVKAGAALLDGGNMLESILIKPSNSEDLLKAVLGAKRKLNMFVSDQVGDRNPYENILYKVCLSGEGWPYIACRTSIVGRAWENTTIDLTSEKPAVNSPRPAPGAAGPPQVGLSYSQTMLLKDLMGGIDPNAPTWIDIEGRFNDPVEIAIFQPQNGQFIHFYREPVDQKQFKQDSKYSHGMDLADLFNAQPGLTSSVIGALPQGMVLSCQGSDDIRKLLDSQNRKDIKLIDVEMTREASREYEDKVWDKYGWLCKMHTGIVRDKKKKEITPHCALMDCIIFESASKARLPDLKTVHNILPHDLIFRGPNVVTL
Results filed as inconclusive are left out. The source made the active and inactive calls. Calls follow the shape of the full dose curve.
Classes used: active, inactive

{"columns": ["molecule", "study-target", "classification"],
 "data": [
  ["CCCCCCCCC(=O)OCC", "Nucleoprotein (Lymphocytic choriomeningitis virus (strain Armstrong)) (UniProt P09992)", "inactive"],
  ["CO[C@@H]1C(N(C)C(=O)c2ccccc2)C[C@H]2O[C@]1(C)n1c3ccccc3c3c4c(c5c6ccccc6n2c5c31)C(=O)NC4=O (stereo not given in full)", "Nucleoprotein (Lymphocytic choriomeningitis virus (strain Armstrong)) (UniProt P09992)", "inactive"],
  ["COc1cc(SC)ccc1C(=O)N1CCC(Cc2ccccc2)CC1", "Nucleoprotein (Lymphocytic choriomeningitis virus (strain Armstrong)) (UniProt P09992)", "inactive"],
  ["CC(C)=CCc1c(-c2ccc(O)cc2O)oc2cc3c(c(O)c2c1=O)C=CC(C)(C)O3", "Nucleoprotein (Lymphocytic choriomeningitis virus (strain Armstrong)) (UniProt P09992)", "inactive"],
  ["O=C(O)CCCC[C@@H]1CCSS1", "Nucleoprotein (Lymphocytic choriomeningitis virus (strain Armstrong)) (UniProt P09992)", "inactive"],
  ["CC(C)CCC[C@@H](C)[C@@H]1CC[C@H]2C3=CC=C4CC(O)CC[C@]4(C)[C@H]3CC[C@@]21C (stereo not given in full)", "Nucleoprotein (Lymphocytic choriomeningitis virus (strain Armstrong)) (UniProt P09992)", "inactive"],
  ["COc1cc2c(cc1OC)C(C(=O)c1ccc(OC)c(OC)c1O)=NCC2", "Nucleoprotein (Lymphocytic choriomeningitis virus (strain Armstrong)) (UniProt P09992)", "inactive"],
  ["COc1cc(-c2nn(C3CCC(N4CCN(C(C)=O)CC4)CC3)c3ncnc(N)c23)ccc1NC(=O)c1cc2ccccc2n1C (stereo not given)", "Nucleoprotein (Lymphocytic choriomeningitis virus (strain Armstrong)) (UniProt P09992)", "active"],
  ["CCCCCCCCC1CCC(=O)O1 (stereo not given)", "Nucleoprotein (Lymphocytic choriomeningitis virus (strain Armstrong)) (UniProt P09992)", "inactive"],
  ["O=C(Nc1ccccc1)Nc1ccccc1", "Nucleoprotein (Lymphocytic choriomeningitis virus (strain Armstrong)) (UniProt P09992)", "inactive"]
]}
